# Tgt: T1, human IL-15Rα (human, UniProt Q13261 31-205, limits assumed)
# T1 construct: also called hIL-15Rα; IL-15 receptor alpha
# Assay details: SPR, steady state
pKd: −log10 of the molar value.

[
  {
    "Binder": "hIL-15 V49R/D61K (ligand) NWVNVISDLKKIEDLIQSMHIDATLYTESDVHPSCKVTAMKCFLLELQRISLESGDASIHKTVENLIILANNSLSSNGNVTESGCKECEELEEKNIKEFLQSFVHIVQMFINTGGGGSGHHHHHHHHGGGLNDIFEAQKIEWHE",
    "pKd": 6.94
  },
  {
    "Binder": "hIL-15 V49R/D61N (ligand) NWVNVISDLKKIEDLIQSMHIDATLYTESDVHPSCKVTAMKCFLLELQRISLESGDASIHNTVENLIILANNSLSSNGNVTESGCKECEELEEKNIKEFLQSFVHIVQMFINTGGGGSGHHHHHHHHGGGLNDIFEAQKIEWHE",
    "pKd": 6.92
  },
  {
    "Binder": "hIL-15 V49R/N4P (ligand) NWVPVISDLKKIEDLIQSMHIDATLYTESDVHPSCKVTAMKCFLLELQRISLESGDASIHDTVENLIILANNSLSSNGNVTESGCKECEELEEKNIKEFLQSFVHIVQMFINTGGGGSGHHHHHHHHGGGLNDIFEAQKIEWHE",
    "pKd": 6.45
  },
  {
    "Binder": "hIL-15 V49R/H32K (ligand) NWVNVISDLKKIEDLIQSMHIDATLYTESDVKPSCKVTAMKCFLLELQRISLESGDASIHDTVENLIILANNSLSSNGNVTESGCKECEELEEKNIKEFLQSFVHIVQMFINTGGGGSGHHHHHHHHGGGLNDIFEAQKIEWHE",
    "pKd": 7.03
  },
  {
    "Binder": "hIL-15 V49R/D30F (ligand) NWVNVISDLKKIEDLIQSMHIDATLYTESFVHPSCKVTAMKCFLLELQRISLESGDASIHDTVENLIILANNSLSSNGNVTESGCKECEELEEKNIKEFLQSFVHIVQMFINTGGGGSGHHHHHHHHGGGLNDIFEAQKIEWHE",
    "pKd": 6.78
  },
  {
    "Binder": "hIL-15 V49R/E64Q (ligand) NWVNVISDLKKIEDLIQSMHIDATLYTESDVHPSCKVTAMKCFLLELQRISLESGDASIHDTVQNLIILANNSLSSNGNVTESGCKECEELEEKNIKEFLQSFVHIVQMFINTGGGGSGHHHHHHHHGGGLNDIFEAQKIEWHE",
    "pKd": 6.90
  },
  {
    "Binder": "hIL-15 V49R/N4H (ligand) NWVHVISDLKKIEDLIQSMHIDATLYTESDVHPSCKVTAMKCFLLELQRISLESGDASIHDTVENLIILANNSLSSNGNVTESGCKECEELEEKNIKEFLQSFVHIVQMFINTGGGGSGHHHHHHHHGGGLNDIFEAQKIEWHE",
    "pKd": 7.09
  },
  {
    "Binder": "hIL-15 V49R/S29K (ligand) NWVNVISDLKKIEDLIQSMHIDATLYTEKDVHPSCKVTAMKCFLLELQRISLESGDASIHDTVENLIILANNSLSSNGNVTESGCKECEELEEKNIKEFLQSFVHIVQMFINTGGGGSGHHHHHHHHGGGLNDIFEAQKIEWHE",
    "pKd": 6.58
  },
  {
    "Binder": "hIL-15 V49R/D8S (ligand) NWVNVISSLKKIEDLIQSMHIDATLYTESDVHPSCKVTAMKCFLLELQRISLESGDASIHDTVENLIILANNSLSSNGNVTESGCKECEELEEKNIKEFLQSFVHIVQMFINTGGGGSGHHHHHHHHGGGLNDIFEAQKIEWHE",
    "pKd": 6.91
  },
  {
    "Binder": "hIL-15 V49R/M109A (ligand) NWVNVISDLKKIEDLIQSMHIDATLYTESDVHPSCKVTAMKCFLLELQRISLESGDASIHDTVENLIILANNSLSSNGNVTESGCKECEELEEKNIKEFLQSFVHIVQAFINTGGGGSGHHHHHHHHGGGLNDIFEAQKIEWHE",
    "pKd": 6.70
  },
  {
    "Binder": "hIL-15 V49R/L69V (ligand) NWVNVISDLKKIEDLIQSMHIDATLYTESDVHPSCKVTAMKCFLLELQRISLESGDASIHDTVENLIIVANNSLSSNGNVTESGCKECEELEEKNIKEFLQSFVHIVQMFINTGGGGSGHHHHHHHHGGGLNDIFEAQKIEWHE",
    "pKd": 7.07
  },
  {
    "Binder": "hIL-15 V49R/I68R (ligand) NWVNVISDLKKIEDLIQSMHIDATLYTESDVHPSCKVTAMKCFLLELQRISLESGDASIHDTVENLIRLANNSLSSNGNVTESGCKECEELEEKNIKEFLQSFVHIVQMFINTGGGGSGHHHHHHHHGGGLNDIFEAQKIEWHE",
    "pKd": 6.99
  },
  {
    "Binder": "hIL-15 V49R/D8A (ligand) NWVNVISALKKIEDLIQSMHIDATLYTESDVHPSCKVTAMKCFLLELQRISLESGDASIHDTVENLIILANNSLSSNGNVTESGCKECEELEEKNIKEFLQSFVHIVQMFINTGGGGSGHHHHHHHHGGGLNDIFEAQKIEWHE",
    "pKd": 6.99
  },
  {
    "Binder": "hIL-15 V49R/S7T (ligand) NWVNVITDLKKIEDLIQSMHIDATLYTESDVHPSCKVTAMKCFLLELQRISLESGDASIHDTVENLIILANNSLSSNGNVTESGCKECEELEEKNIKEFLQSFVHIVQMFINTGGGGSGHHHHHHHHGGGLNDIFEAQKIEWHE",
    "pKd": 7.03
  }
]
